# Assay: Cytotoxicity by MTT assay
# Assay type: cell-based
pIC50: −log10 of the molar value.
Measurement Name: pIC50

Known pIC50 results, listed for orientation:
[
  {
    "Molecule": "CCc1ccc(-c2cnc(N)c(C(=O)Nc3ccc(C(N)=O)cc3)c2)cc1 [Compound 22]",
    "pIC50": "< 4.60"
  },
  {
    "Molecule": "CCc1ccc(-c2cnc(N)c(C(=O)Nc3cccc(C)c3)c2)cc1 [Compound 8]",
    "pIC50": "< 4.60"
  }
]

Ask: Supply pIC50 value. Item: CCc1ccc(-c2cnc(N)c(C(=O)Nc3ccccc3)c2)cc1 [Compound 6]
Reply: < 4.60

Ask: Supply pIC50 value. Item: CCc1ccc(-c2cnc(N)c(C(=O)Nc3cccc(N)c3)c2)cc1 [Compound 11]
Reply: < 4.60

Ask: Supply pIC50 value. Item: CCc1ccc(-c2cnc(N)c(C(=O)Nc3ccc(F)cc3)c2)cc1 [Compound 16]
Reply: < 4.60

Ask: Supply pIC50 value. Item: CC(=O)Nc1ccc(NC(=O)c2cc(-c3ccc(O)cc3)cnc2N)cc1 [Compound 43]
Reply: < 4.30

Ask: Supply pIC50 value. Item: CCc1ccc(-c2cnc(N)c(C(=O)Nc3ccc(C(C)C)cc3)c2)cc1 [Compound 21]
Reply: < 4.60

Ask: Supply pIC50 value. Item: CCc1ccc(-c2cncc(C(=O)Nc3ccc(NC(C)=O)cc3)c2)cc1 [Compound 25]
Reply: < 4.60

Ask: Supply pIC50 value. Item: CCc1ccc(NC(=O)c2cc(-c3ccc(CC)cc3)cnc2N)cc1 [Compound 19]
Reply: < 4.60

Just for reference, paper PMC10281321 is where these values come from.
